meta.source: ChEMBL document CHEMBL3612009

target: UniProt P25779
Consider the following compounds and their measured IC50 readings.
parameter_measured: IC50

molecule_smiles: NC(=S)N/N=C(\COc1ccc(F)c(Cl)c1)c1ccc(Br)cc1
observed_measurement: 70 nM
//
molecule_smiles: NC(=S)N/N=C(/COc1ccc(Br)cc1)c1ccc(-c2ccccc2)cc1
observed_measurement: 600 nM
//
molecule_smiles: NC(=S)N/N=C(\COc1ccc(Cl)c(Cl)c1)c1ccc(Br)cc1
observed_measurement: 8 nM
//
molecule_smiles: NC(=S)N/N=C(\COc1ccc(F)cc1)c1ccc(Br)cc1
observed_measurement: 400 nM

---

Consider the following molecules and their measured MNTC at 24 h readings.
assay: Cytotoxicity against BALB/c mouse splenocytes assessed as maximum non-toxic concentration by measuring [3H]-thymidine incorporation after 24 hrs by liquid scintillation counting; assay type: cell-based, Splenocyte

molecule_smiles: NC(=S)N/N=C(\COc1cccc2ccccc12)c1ccc(Br)cc1
value_units: nM
relation_operator: =
MNTC at 24 h: 2400
--
molecule_smiles: NC(=S)N/N=C(/COc1ccc(Br)cc1)c1ccc(-c2ccccc2)cc1
value_units: nM
relation_operator: =
MNTC at 24 h: 2300
--
molecule_smiles: NC(=S)N/N=C(\COc1ccc(Cl)cc1)c1ccc(Br)cc1
value_units: nM
relation_operator: <
MNTC at 24 h: 2500
--
molecule_smiles: COc1ccc(OC/C(=N\NC(N)=S)c2ccc(Br)cc2)cc1
value_units: nM
relation_operator: <
MNTC at 24 h: 2500
--
molecule_smiles: NC(=S)N/N=C(\COc1ccc(F)c(Cl)c1)c1ccc(Br)cc1
value_units: nM
relation_operator: =
MNTC at 24 h: 2400
--
molecule_smiles: NC(=S)N/N=C(\COc1cccc(Cl)c1)c1ccc(Br)cc1
value_units: nM
relation_operator: =
MNTC at 24 h: 2500
--
molecule_smiles: NC(=S)N/N=C(/COc1ccc(Br)cc1)c1cccc2ccccc12
value_units: nM
relation_operator: =
MNTC at 24 h: 2400
--
molecule_smiles: NC(=S)N/N=C(\COc1ccc(Cl)c(Cl)c1)c1ccc(Br)cc1
value_units: nM
relation_operator: <
MNTC at 24 h: 2300
--
molecule_smiles: NC(=S)N/N=C(/COc1ccc(Br)cc1)c1ccc(F)cc1
value_units: nM
relation_operator: =
MNTC at 24 h: 2600
--
molecule_smiles: NC(=S)N/N=C(\COc1ccc(F)cc1)c1ccc(Br)cc1
value_units: nM
relation_operator: =
MNTC at 24 h: 2600
--
molecule_smiles: NC(=S)N/N=C(\COc1ccccc1)c1ccc(Br)cc1
value_units: nM
relation_operator: =
MNTC at 24 h: 137000

---

target: Cruzipain (Trypanosoma cruzi); experiment: Inhibition of Trypanosoma cruzi catalytic activity of cruzain using Z-FR-AMC as substrate at 50 uM after 10 mins by fluorescence assay
Sequence (P25779 whole entry): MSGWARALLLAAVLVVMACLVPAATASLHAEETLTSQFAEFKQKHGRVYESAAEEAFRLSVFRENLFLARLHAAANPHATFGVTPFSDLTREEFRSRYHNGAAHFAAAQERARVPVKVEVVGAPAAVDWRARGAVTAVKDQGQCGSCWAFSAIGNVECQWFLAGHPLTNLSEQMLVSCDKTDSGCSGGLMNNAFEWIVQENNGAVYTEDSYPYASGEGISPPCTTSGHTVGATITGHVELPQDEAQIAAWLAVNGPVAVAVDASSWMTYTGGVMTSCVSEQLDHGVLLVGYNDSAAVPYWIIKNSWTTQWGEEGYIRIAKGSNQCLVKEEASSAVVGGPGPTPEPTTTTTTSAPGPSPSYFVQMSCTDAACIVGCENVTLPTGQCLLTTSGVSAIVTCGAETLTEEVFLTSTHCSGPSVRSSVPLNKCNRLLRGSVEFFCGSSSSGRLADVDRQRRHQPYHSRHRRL
Consider the following molecules and their measured inhibition readings.

molecule_smiles: CC(=O)Nc1ccc(OC/C(=N\NC(N)=S)c2ccc(Br)cc2)cc1
tgt: Cruzipain (Trypanosoma cruzi)
inhibition / %: 80.7
--
molecule_smiles: Fc1ccc(/C(COc2ccc(Br)cc2)=N\NC(=S)Nc2ccccc2)cc1
tgt: Cruzipain (Trypanosoma cruzi)
inhibition / %: 35
--
molecule_smiles: NC(=S)N/N=C(\COc1cccc(-c2ccccc2)c1)c1ccc(Br)cc1
tgt: Cruzipain (Trypanosoma cruzi)
inhibition / %: 65.4
--
molecule_smiles: COc1ccc(/C(COc2ccc(Br)cc2)=N\NC(=S)Nc2ccccc2)cc1
tgt: Cruzipain (Trypanosoma cruzi)
inhibition / %: 42.8
--
molecule_smiles: NC(=S)N/N=C(\COc1ccccc1Cl)c1ccc(Br)cc1
tgt: Cruzipain (Trypanosoma cruzi)
inhibition / %: 58.9
--
molecule_smiles: NC(=S)N/N=C(\COc1cccc(Cl)c1)c1ccc(Br)cc1
tgt: Cruzipain (Trypanosoma cruzi)
inhibition / %: 51.8
--
molecule_smiles: NC(=S)N/N=C(/COc1ccc(Br)cc1)c1ccc(Cl)cc1
tgt: Cruzipain (Trypanosoma cruzi)
inhibition / %: 67.5
--
molecule_smiles: NC(=S)N/N=C(/COc1ccc(Br)cc1)c1ccc(-c2ccccc2)cc1
tgt: Cruzipain (Trypanosoma cruzi)
inhibition / %: 88.9
--
molecule_smiles: NC(=S)N/N=C(\COc1ccc(I)cc1)c1ccc(Br)cc1
tgt: Cruzipain (Trypanosoma cruzi)
inhibition / %: 63.3
--
molecule_smiles: NC(=S)N/N=C(\COc1ccc(F)cc1)c1ccc(Br)cc1
tgt: Cruzipain (Trypanosoma cruzi)
inhibition / %: 84
--
molecule_smiles: Cc1ccc(/C(COc2ccc(Br)cc2)=N\NC(N)=S)cc1
tgt: Cruzipain (Trypanosoma cruzi)
inhibition / %: 70.9

---

target: Cruzipain (Trypanosoma cruzi); assay: Inhibition of Trypanosoma cruzi catalytic activity of cruzain using Z-FR-AMC as substrate at 50 uM after 10 mins by fluorescence assay
parameter_measured: inhibition (%)

molecule_smiles: CC(C)(C)c1ccc(OC/C(=N\NC(N)=S)c2ccc(Br)cc2)cc1
value_units: %
observed_measurement: 85.3
--
molecule_smiles: COc1ccc(OC/C(=N\NC(N)=S)c2ccc(Br)cc2)cc1
value_units: %
observed_measurement: 75.8
--
molecule_smiles: NC(=S)N/N=C(\COc1ccc2ccccc2c1)c1ccc(Br)cc1
value_units: %
observed_measurement: 72.1
--
molecule_smiles: CNC(=S)N/N=C(/COc1ccc(Br)cc1)c1ccc(F)cc1
value_units: %
observed_measurement: 30
--
molecule_smiles: NC(=S)N/N=C(\COc1ccc(Cl)cc1)c1ccc(Br)cc1
value_units: %
observed_measurement: 73.6
--
molecule_smiles: NC(=S)N/N=C(\COc1ccc(Cl)c(Cl)c1)c1ccc(Br)cc1
value_units: %
observed_measurement: 99.1
--
molecule_smiles: NC(=S)N/N=C(\COc1ccccc1)c1ccc(Br)cc1
value_units: %
observed_measurement: 61.8
--
molecule_smiles: COc1ccc(/C(COc2ccc(Br)cc2)=N\NC(N)=S)cc1
value_units: %
observed_measurement: 38.7
--
molecule_smiles: CNC(=S)N/N=C(/COc1ccc(Br)cc1)c1ccc(OC)cc1
value_units: %
observed_measurement: 29.8
--
molecule_smiles: NC(=S)N/N=C(\COc1cccc(Cl)c1Cl)c1ccc(Br)cc1
value_units: %
observed_measurement: 81.8
--
molecule_smiles: COc1cccc(OC/C(=N\NC(N)=S)c2ccc(Br)cc2)c1
value_units: %
observed_measurement: 62.8
--
molecule_smiles: NC(=S)N/N=C(\COc1cccc(Br)c1)c1ccc(Br)cc1
value_units: %
observed_measurement: 81.3
--
molecule_smiles: NC(=S)N/N=C(/COc1ccc(Br)cc1)c1ccc(F)cc1
value_units: %
observed_measurement: 53.1
--
molecule_smiles: NC(=S)N/N=C(\COc1ccc(-c2ccccc2)cc1)c1ccc(Br)cc1
value_units: %
observed_measurement: 63.7

---

system: Trypanosoma cruzi; experiment: Antitrypanosomal activity against amastigote and trypomastigote forms of Trypanosoma cruzi Tulahuen expressing beta-galactosidase gene infected in mouse L-929 cells assessed as inhibition of parasite growth after 7 days by colorimetric betagalactosidase assay; assay type: functional, organism-based; conditions: L929, 168 h
pIC50: −log10 of the molar value.
Consider the following compounds and their measured pIC50 readings.

molecule_smiles: NC(=S)N/N=C(\COc1cccc(Cl)c1)c1ccc(Br)cc1
relation_operator: =
pIC50: 4.60
--
molecule_smiles: NC(=S)N/N=C(\COc1ccc(I)cc1)c1ccc(Br)cc1
relation_operator: =
pIC50: 5.07
--
molecule_smiles: NC(=S)N/N=C(\COc1cccc2ccccc12)c1ccc(Br)cc1
relation_operator: =
pIC50: 4.32
--
molecule_smiles: NC(=S)N/N=C(\COc1cccc(Cl)c1Cl)c1ccc(Br)cc1
relation_operator: =
pIC50: 4.97
--
molecule_smiles: COc1ccc(/C(COc2ccc(Br)cc2)=N\NC(N)=S)cc1
relation_operator: =
pIC50: 4.92
--
molecule_smiles: NC(=S)N/N=C(/COc1ccc(Br)cc1)c1ccc(Cl)cc1
relation_operator: =
pIC50: 4.83
--
molecule_smiles: NC(=S)N/N=C(\COc1ccc(Cl)c(Cl)c1)c1ccc(Br)cc1
relation_operator: =
pIC50: 5.08
--
molecule_smiles: NC(=S)N/N=C(\COc1ccc(F)cc1)c1ccc(Br)cc1
relation_operator: =
pIC50: 4.80
--
molecule_smiles: NC(=S)N/N=C(/COc1ccc(Br)cc1)c1ccc(F)cc1
relation_operator: =
pIC50: 4.97
--
molecule_smiles: CC(=O)Nc1ccc(OC/C(=N\NC(N)=S)c2ccc(Br)cc2)cc1
relation_operator: =
pIC50: 4.36
--
molecule_smiles: NC(=S)N/N=C(\COc1ccc(-c2ccccc2)cc1)c1ccc(Br)cc1
relation_operator: =
pIC50: 4.12
--
molecule_smiles: NC(=S)N/N=C(\COc1ccccc1)c1ccc(Br)cc1
relation_operator: =
pIC50: 5.27
--
molecule_smiles: NC(=S)N/N=C(\COc1ccc2ccccc2c1)c1ccc(Br)cc1
relation_operator: =
pIC50: 4.87
--
molecule_smiles: COc1ccc(OC/C(=N\NC(N)=S)c2ccc(Br)cc2)cc1
relation_operator: =
pIC50: 5.05
--
molecule_smiles: CC(C)c1ccc(OC/C(=N\NC(N)=S)c2ccc(Br)cc2)cc1
relation_operator: =
pIC50: 4.91
--
molecule_smiles: NC(=S)N/N=C(\COc1cccc(-c2ccccc2)c1)c1ccc(Br)cc1
relation_operator: <
pIC50: 3.74
--
molecule_smiles: NC(=S)N/N=C(/COc1ccc(Br)cc1)c1ccc(Br)cc1
relation_operator: >
pIC50: 5.09
